- MEASURED_TARGET: T1, hAMY3R (human, UniProt P30988)
- T1 sequence 1: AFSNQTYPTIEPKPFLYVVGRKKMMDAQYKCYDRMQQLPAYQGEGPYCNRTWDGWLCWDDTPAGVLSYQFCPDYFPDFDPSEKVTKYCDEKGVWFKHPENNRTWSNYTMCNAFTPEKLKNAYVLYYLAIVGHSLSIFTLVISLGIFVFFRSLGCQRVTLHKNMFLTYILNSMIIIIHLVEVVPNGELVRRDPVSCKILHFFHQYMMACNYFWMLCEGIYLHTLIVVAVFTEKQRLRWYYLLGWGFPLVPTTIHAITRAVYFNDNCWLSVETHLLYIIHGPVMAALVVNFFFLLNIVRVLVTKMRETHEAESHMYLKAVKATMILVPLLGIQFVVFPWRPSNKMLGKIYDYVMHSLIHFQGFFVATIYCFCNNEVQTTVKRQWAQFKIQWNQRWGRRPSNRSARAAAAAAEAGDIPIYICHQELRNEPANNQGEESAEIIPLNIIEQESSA
- T1 sequence 2: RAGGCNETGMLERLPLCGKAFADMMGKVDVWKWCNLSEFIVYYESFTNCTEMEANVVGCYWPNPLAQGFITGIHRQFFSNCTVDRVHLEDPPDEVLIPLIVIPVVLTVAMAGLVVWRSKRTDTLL
- ASSAY_NOTES: cell-based or functional assay
Bridge positions count the residues as written; N and C are the ends. Square brackets hold non-standard residues; d marks the D form. Ends that are not written are not given here. Hyp = O=C(O)[C@@H]1C[C@@H](O)CN1; Cit = NC(=O)NCCC[C@H](N)C(=O)O
MEASURE: hAMY3R EC50 (cAMP) (nM)
Give bare numbers, in nM.

[[record]]
binder = "GCRTGTCTVQWLAHQIYQFTDKDKDNVAPRTNVGPQGY [SEQ ID NO: 335]"
quantitative_readout = 0.015

[[record]]
binder = "GCRFGTCTVQ[Cit]LAHQIYQFTDKDKDNVAPRSKIGPQG[Hyp]-NH2 (disulfide 2-7 (inferred); ends not checked) [SEQ ID NO: 284]"
quantitative_readout = 0.028

[[record]]
binder = "GCRTGTCTVQRLAHQIYQFTDKDKDNVAPRTNVSPQG[Hyp]-NH2 (disulfide 2-7 (inferred); ends not checked) [SEQ ID NO: 178]"
quantitative_readout = 0.08

[[record]]
binder = "KCNTATCTVQ[Cit]LAHQIAQFTDKDKDNVAPPTNVGSNG[Hyp]-NH2 (disulfide 2-7 (inferred); ends not checked) [SEQ ID NO: 246]"
quantitative_readout = 0.01


// for each binder below, give its hAMY3R EC50 (cAMP)
1. GCRFGTCTVQ[Cit]LAHQIYQFTDKDKDNVAPRTKVGPQG[Hyp]-NH2 (disulfide 2-7 (inferred); ends not checked) [SEQ ID NO: 259]
2. KCNTATCTVQRLAHQIYQFDKDKDNVAPPTNVGSNG[Hyp]-NH2 (disulfide 2-7 (inferred); ends not checked) [SEQ ID NO: 65]
3. GCRMGTCTVQRLAHQIYQFTDKFKDNVAPRSKISPQT[Hyp]-NH2 (disulfide 2-7 (inferred); ends not checked) [SEQ ID NO: 173]
4. GCRTGTCTVQRLAHQIYQFTDKFKDNVAPRSKISPQP[Hyp] (ends and bridges not checked) [SEQ ID NO: 203]
5. GCRMGTCTVQRLAHQIYQFTNKDKDNVAPRSKISPQT[Hyp]-NH2 (disulfide 2-7 (inferred); ends not checked) [SEQ ID NO: 192]

result:
0.013
0.012
0.069
0.127
0.098
